# target.under.test: T1, human TREM2 (human) (UniProt Q9NZC2)
# T1 sequence (looked up): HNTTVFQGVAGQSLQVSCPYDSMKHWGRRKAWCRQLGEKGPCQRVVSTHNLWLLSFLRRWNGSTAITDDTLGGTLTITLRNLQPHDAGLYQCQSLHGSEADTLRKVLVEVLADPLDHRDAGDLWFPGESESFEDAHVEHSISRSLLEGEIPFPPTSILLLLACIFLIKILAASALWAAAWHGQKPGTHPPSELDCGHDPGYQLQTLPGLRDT
# test.details: 2nd screen, 2 nM Ab
Recorded Binding Signal (fold over 6E7 parental antibody), one value per entry.
Numbers only here, please. The scale is fold.

These recorded examples may help you get a feel for the data.
6E7 variant V17 (antibody, V domains shown) VH: EVQLVQSGAEVKKPGESLKISCKGSGYSFGSYWIAWVRQMPGKGLEWMGIIYPGDSDTRYSPSFQGQVTISADKSISTAYLQWSSLKASDTAMYFCARSRTFYYDSSDYFDYWGQGTLVTVSS VL: DIQMTQSPSSVSASVGDRVTITCRASQGISSWLAWYQQKPGKAPKLLIYAASSRQNGVPSRFSGSGSGTDFTLTISSLQPEDFATYFCQQADSSPRTFGQGTKLEIK; 4.22
6E7 variant V87 (antibody, V domains shown) VH: EVQLVQSGAEVKKPGESLKISCKGSGYSFRSYWIAWVRQMPGKGLEWMGIIYPGDSDVRYSPDFQGQVTISADKSISTAYLQWSSLKASDTAMYFCARSRTFYYDSSDYFDYWGQGTLVTVSS VL: DIQMTQSPSSVSASVGDRVTITCRASQGISSWLAWYQQKPGKAPKLLIYAASSLQWGVPSRFSGSGSGTDFTLTISSLQPEDFATYFCQQADSFPRTFGQGTKLEIK; 4.86

# ---- query binder ----
**Query** What value of measured Binding Signal (fold over 6E7 parental antibody) is listed for 6E7 variant V49 (antibody, V domains shown) VH: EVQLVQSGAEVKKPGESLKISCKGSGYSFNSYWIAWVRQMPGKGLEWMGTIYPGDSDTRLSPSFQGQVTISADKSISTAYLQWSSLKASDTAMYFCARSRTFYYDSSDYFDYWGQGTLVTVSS VL: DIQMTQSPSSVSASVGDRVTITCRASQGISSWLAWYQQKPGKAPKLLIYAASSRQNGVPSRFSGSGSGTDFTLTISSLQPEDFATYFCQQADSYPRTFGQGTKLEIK ?
**Result** 5.02
